- tgt: T1, rhesus CD36-His overexpressed on stable F293 cells (rhesus, UniProt P16671 2-472 (human entry))
- T1 construct: Gene segment from Sino Biological; also called F293/rhesusCD36; not shown: His tag
- experiment summary: flow cytometry, F293 cells overexpressing rhesus CD36
reported property: EC50 (µg/mL)
Numeric only. Scale: µg/mL

Solved cases below.
117_30DA (antibody, V domains shown, full-length IgG, human kappa) VH: EVQLVESGGGLVQPGGSLRLSCAASGFTIDAFGIHWVRQAPGKGLEWVAWIAPYGGYTYYADSVKGRFTISADTSKNTAYLQMNSLRAEDTAVYYCARSFFGYFDYWGQGTLVTVSS VL: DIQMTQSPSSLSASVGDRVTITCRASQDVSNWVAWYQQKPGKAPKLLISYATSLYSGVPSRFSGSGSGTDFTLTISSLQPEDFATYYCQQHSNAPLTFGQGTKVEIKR :: 1.04
117_57DE (antibody, V domains shown, full-length IgG, human kappa) VH: EVQLVESGGGLVQPGGSLRLSCAASGFTISSFGIHWVRQAPGKGLEWVAWIAPYGGDEYYADSVKGRFTISADTSKNTAYLQMNSLRAEDTAVYYCARSFFGYFDYWGQGTLVTVSS VL: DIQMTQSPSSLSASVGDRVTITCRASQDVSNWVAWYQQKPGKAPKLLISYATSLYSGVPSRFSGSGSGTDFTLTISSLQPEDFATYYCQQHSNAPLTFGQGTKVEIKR :: 0.529
117_30DE (antibody, V domains shown, full-length IgG, human kappa) VH: EVQLVESGGGLVQPGGSLRLSCAASGFTIDSFGIHWVRQAPGKGLEWVAWIAPYGGETYYADSVKGRFTISADTSKNTAYLQMNSLRAEDTAVYYCARSFFGYFDYWGQGTLVTVSS VL: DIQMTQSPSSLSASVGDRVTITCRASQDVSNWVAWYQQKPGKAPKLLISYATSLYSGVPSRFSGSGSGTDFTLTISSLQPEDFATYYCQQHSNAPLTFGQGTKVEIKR :: 0.403

[in] Answer with reported EC50 of 117_DA57D (antibody, V domains shown, full-length IgG, human kappa) VH: EVQLVESGGGLVQPGGSLRLSCAASGFTIDAFGIHWVRQAPGKGLEWVAWIAPYGGDTYYADSVKGRFTISADTSKNTAYLQMNSLRAEDTAVYYCARSFFGYFDYWGQGTLVTVSS VL: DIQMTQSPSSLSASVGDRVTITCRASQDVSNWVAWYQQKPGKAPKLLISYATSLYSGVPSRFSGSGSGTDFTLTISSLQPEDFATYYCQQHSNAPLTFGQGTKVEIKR
[out] 0.416

[in] Answer with reported EC50 of 117_57EE (antibody, V domains shown, full-length IgG, human kappa) VH: EVQLVESGGGLVQPGGSLRLSCAASGFTISSFGIHWVRQAPGKGLEWVAWIAPYGGEEYYADSVKGRFTISADTSKNTAYLQMNSLRAEDTAVYYCARSFFGYFDYWGQGTLVTVSS VL: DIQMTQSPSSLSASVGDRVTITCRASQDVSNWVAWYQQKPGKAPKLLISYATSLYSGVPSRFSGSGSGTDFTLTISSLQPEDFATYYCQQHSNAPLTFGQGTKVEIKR
[out] 0.407

[in] Answer with reported EC50 of 117_57D (antibody, V domains shown, full-length IgG, human kappa) VH: EVQLVESGGGLVQPGGSLRLSCAASGFTISSFGIHWVRQAPGKGLEWVAWIAPYGGDTYYADSVKGRFTISADTSKNTAYLQMNSLRAEDTAVYYCARSFFGYFDYWGQGTLVTVSS VL: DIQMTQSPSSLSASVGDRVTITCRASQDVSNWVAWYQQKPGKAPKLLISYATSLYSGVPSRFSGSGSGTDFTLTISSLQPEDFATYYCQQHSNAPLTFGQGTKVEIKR
[out] 0.397
